Tested on: Influenza A virus H3N2
Assay: Antiviral activity against Influenza A virus H3N2 infected in dog MDCK cells assessed as inhibition in virus-induced cytopathic effect incubated for 40 hrs
Assay type: functional, organism-based
Quantity Kind: pIC50
Give bare numbers, as −log10 of the molar value.

| Smiles Structure | Measured Target | pIC50 |
| --- | --- | --- |
| C=C(C(=O)OC)[C@@H]1CC[C@H](C)[C@H]2C(=C(C)C(=O)[C@H]2NS(=O)(=O)c2ccc(F)cc2)C1 | Influenza A virus H3N2 | 4.99 |

Kindly give each listed record's pIC50.
1. CCOC(=O)C1=C[C@@H](OC(CC)CC)[C@H](NC(C)=O)[C@@H](N)C1
2. C=C(C(=O)NCc1ccc(B(O)O)cc1)[C@@H]1CC[C@H](C)[C@@H]2CC(=O)C(C)=C2C1
3. NC(=O)c1ncn([C@@H]2O[C@H](CO)[C@@H](O)[C@H]2O)n1

## Result
[4.95, 4.18, 4.97]

###

Assay: Selectivity index, ratio of TC50 for cytotoxicity against dog MDCK cells to IC50 for antiviral activity against Influenza B virus infected in dog MDCK cells
Assay type: toxicity, cell-based
Conditions: read-out: Selectivity Index
Quantity Kind: selectivity ratio
Give bare numbers.

| Smiles Structure | selectivity ratio |
| --- | --- |
| C=C(C(=O)OC)[C@@H]1CC[C@H](C)[C@H]2C(=C(C)C(=O)[C@H]2NS(=O)(=O)c2ccc(F)cc2)C1 | 1.7 |
| C=C(C(=O)OC)[C@@H]1CC[C@H](C)[C@H]2C(=C(C)C(=O)[C@H]2NS(C)(=O)=O)C1 | 5.6 |
| C=C(C(=O)NCc1ccc(B(O)O)cc1)[C@@H]1CC[C@H](C)[C@@H]2CC(=O)C(C)=C2C1 | 3.3 |

Shift focus to the following entry.
## Task Look up selectivity ratio: C=C(C(=O)NCc1cccc(B(O)O)c1)[C@@H]1CC[C@H](C)[C@@H]2CC(=O)C(C)=C2C1
## Result 2.8

###

Experiment: Selectivity index, ratio of TC50 for cytotoxicity against dog MDCK cells to IC50 for antiviral activity against Influenza A virus H1N1 infected in dog MDCK cells
Assay type: toxicity, cell-based
Details: read-out: Selectivity Index
Quantity Kind: selectivity ratio
Give bare numbers.

| Smiles Structure | selectivity ratio |
| --- | --- |
| C=C(C(=O)OC)[C@@H]1CC[C@H](C)[C@H]2C(=C(C)C(=O)[C@H]2NC(C)=O)C1 | 4.9 |
| C=C(C(=O)OC)[C@@H]1CC[C@H](C)[C@@H]2CC(=O)C(C)=C2C1 | 3 |
| C=C(C(=O)OC)[C@@H]1CC[C@H](C)[C@H]2C(=C(C)C(=O)[C@H]2NS(=O)(=O)c2ccc(C)cc2)C1 | 4.3 |

Kindly give each listed record's selectivity ratio.
1. C=C(C(=O)OC)[C@@H]1CC[C@H](C)[C@H]2C(=C(C)C(=O)[C@H]2NC(=O)CNC(=O)c2ccccc2)C1
2. C=C(C(=O)OC)[C@@H]1CC[C@H](C)[C@H]2C(=C(C)C(=O)[C@H]2NC(=O)CC#N)C1
3. C=C(C(=O)OC)[C@@H]1CC[C@H](C)[C@H]2C(=C(C)C(=O)[C@H]2NC(=O)c2ccc(B(O)O)cc2)C1

## Result
1. 4.9
2. 3
3. 4.3

## Task Look up selectivity ratio: C=C(C(=O)Nc1cccc(B(O)O)c1)[C@@H]1CC[C@H](C)[C@@H]2CC(=O)C(C)=C2C1
## Result 4.9

###

Can you tell me selectivity ratio for the items I'm about to list?
Assay: Selectivity index, ratio of TC50 for cytotoxicity against dog MDCK cells to IC50 for antiviral activity against Influenza A virus H1N1 infected in dog MDCK cells
Assay type: toxicity, cell-based
Conditions: read-out: Selectivity Index
Answers are plain numbers.

| Compound | Value Measured |
| --- | --- |
| NC(=O)c1ncn([C@@H]2O[C@H](CO)[C@@H](O)[C@H]2O)n1 [RIBAVIRIN] | 363 |
| C=C(C(=O)O)[C@@H]1CC[C@H](C)[C@@H]2CC(=O)C(C)=C2C1 [PECHUELOIC ACID] | 4.3 |
| C=C(C(=O)Nc1ncc(B(O)O)cn1)[C@@H]1CC[C@H](C)[C@@H]2CC(=O)C(C)=C2C1 | 3.3 |
| C=C(C(=O)OC)[C@@H]1CC[C@H](C)[C@H]2C(=C(C)C(=O)[C@H]2NS(=O)(=O)c2ccc(F)cc2)C1 | 3 |

Kindly give each listed record's selectivity ratio.
1. C=C(C(=O)NCc1ccc(B(O)O)cc1)[C@@H]1CC[C@H](C)[C@@H]2CC(=O)C(C)=C2C1
2. C=C(C(=O)NCc1cccc(B(O)O)c1)[C@@H]1CC[C@H](C)[C@@H]2CC(=O)C(C)=C2C1

## Result
1. 3.3
2. 6

Kindly give each listed record's selectivity ratio.
1. C=C(C(=O)OC)[C@@H]1CC[C@H](C)[C@H]2C(=C(C)C(=O)[C@H]2NS(C)(=O)=O)C1
2. C=C(C(=O)OC)[C@@H]1CC[C@H](C)[C@H]2C(=C(C)C(=O)[C@H]2NC(=O)c2ccccc2)C1

## Result
[5.6, 2.2]

###

Assay: Selectivity index, ratio of TC50 for cytotoxicity against dog MDCK cells to IC50 for antiviral activity against Influenza B virus infected in dog MDCK cells
Format: toxicity, cell-based
Conditions: read-out: Selectivity Index
true (1) if selectivity ratio is below 4. false (0) if not; exact matches included in false (0).

Please review the following examples before continuing.
| Smiles Structure | Category Label |
| --- | --- |
| C=C(C(=O)O)[C@@H]1CC[C@H](C)[C@@H]2CC(=O)C(C)=C2C1 | false (0) |
| C=C(C(=O)OC)[C@@H]1CC[C@H](C)[C@H]2C(=C(C)C(=O)[C@H]2NS(=O)(=O)c2ccc(C)cc2)C1 | false (0) |

Kindly consider the entry below.
## Task Could you please tell me whether selectivity ratio recorded for C=C(C(=O)Nc1cccc(B(O)O)c1)[C@@H]1CC[C@H](C)[C@@H]2CC(=O)C(C)=C2C1 is less than 4?
## Result false (0)

###

Tested on: Influenza A virus H3N2
Test: Antiviral activity against Influenza A virus H3N2 infected in dog MDCK cells assessed as inhibition in virus-induced cytopathic effect incubated for 40 hrs
Type: functional, organism-based
YES if IC50 is below 100 µM. NO if not; exact matches included in NO.

Please review the following examples before continuing.
| Compound | Measured Target | Category Label |
| --- | --- | --- |
| C=C(C(=O)OC)[C@@H]1CC[C@H](C)[C@H]2C(=C(C)C(=O)[C@H]2NC(C)=O)C1 | Influenza A virus H3N2 | NO |
| C=C(C(=O)Nc1ncc(B(O)O)cn1)[C@@H]1CC[C@H](C)[C@@H]2CC(=O)C(C)=C2C1 | Influenza A virus H3N2 | YES |
| C=C(C(=O)NCc1cccc(B(O)O)c1)[C@@H]1CC[C@H](C)[C@@H]2CC(=O)C(C)=C2C1 | Influenza A virus H3N2 | YES |
| C=C(C(=O)OC)[C@@H]1CC[C@H](C)[C@H]2C(=C(C)C(=O)[C@H]2NC(=O)C(C)CCl)C1 (stereo not given in full) | Influenza A virus H3N2 | NO |
| C=C(C(=O)OC)[C@@H]1CC[C@H](C)[C@H]2C(=C(C)C(=O)[C@H]2NS(C)(=O)=O)C1 | Influenza A virus H3N2 | YES |

## Task Could you please tell me whether IC50 recorded for C=C(C(=O)Nc1cccc(B(O)O)c1)[C@@H]1CC[C@H](C)[C@@H]2CC(=O)C(C)=C2C1 is less than 100 µM?
## Result NO

###

Assay: Cytotoxicity against MDCK cells assessed as reduction in cell viability incubated for 48 hrs
Type: cell-based, Canis lupus familiaris
Settings: dog, read-out: TC50
1.0 if CC50 at 48 h is below 300 µM. 0.0 if not; exact matches included in 0.0.

Please review the following examples before continuing.
| Compound | Category Label |
| --- | --- |
| C=C(C(=O)OC)[C@@H]1CC[C@H](C)[C@H]2C(=C(C)C(=O)[C@H]2NC(=O)C(C)CCl)C1 (stereo partly drawn) | 0.0 |
| C=C(C(=O)NCc1ccc(B(O)O)cc1)[C@@H]1CC[C@H](C)[C@@H]2CC(=O)C(C)=C2C1 | 1.0 |
| C=C(C(=O)Nc1ccc2c(c1)COB2O)[C@@H]1CC[C@H](C)[C@@H]2CC(=O)C(C)=C2C1 | 1.0 |
| C=C(C(=O)NCc1cccc(B(O)O)c1)[C@@H]1CC[C@H](C)[C@@H]2CC(=O)C(C)=C2C1 | 1.0 |
| C=C(C(=O)OC)[C@@H]1CC[C@H](C)[C@H]2C(=C(C)C(=O)[C@H]2NC(=O)CC#N)C1 | 0.0 |
| C=C(C(=O)Nc1ccc(B(O)O)cc1)[C@@H]1CC[C@H](C)[C@@H]2CC(=O)C(C)=C2C1 | 0.0 |
| C=C(C(=O)OC)[C@@H]1CC[C@H](C)[C@H]2C(=C(C)C(=O)[C@H]2NS(C)(=O)=O)C1 | 1.0 |

## Task Could you please tell me whether CC50 at 48 h recorded for C=C(C(=O)OC)[C@@H]1CC[C@H](C)[C@H]2C(=C(C)C(=O)[C@H]2NC(=O)c2ccc(B(O)O)cc2)C1 is less than 300 µM?
## Result 1.0
